testedTarget: human spermatozoa
testMethodNotes: Inhibition of fractionated NO23-SAMMA-induced acrosomal loss by protein kinase G inhibitor
experimentalSetup: Ca2+-independent (absence of added extracellular Ca2+)
assayReadout: pIC50
To interpret pIC50, take it as minus log10 of a concentration measured in moles per litre.

Item: COC(=O)[C@@]1(OC)C[C@H]2O[C@]1(C)n1c3ccccc3c3c4c(c5c6ccccc6n2c5c31)C(=O)N(C)C4 [KT5823] | pIC50: 6.15
